assay: compound binding in COS7 lysate, probe aLAP1, primary screen, cell lysate, small-molecule microarray (AID 1124); details: probe aLAP1, fluorescence, higher = more signal;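 further: lysate comes from COS7 cells expressing LAP1 and is applied at 0.3 µg/mL; score merges spot fluorescence near 667 nm with signal-to-noise over triplicate slides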
composite z-score of 0.1 or higher: Criterion met. Under 0.1: Criterion not met.

{"columns": ["SMILES", "QUALITATIVE_LABEL"],
 "data": [
  ["COC(=O)[C@@H]1N=C(c2ccc(OCCCO)cc2)O[C@@H]1c1ccccc1N=[N+]=[N-]", "Criterion met"],
  ["O=C1[C@H]2[C@H]3[C@H](O)[C@H](O)CC(=NOCc4ccccc4)[C@H]3CC[C@H]2C(=O)N1c1ccc(F)cc1F", "Criterion not met"]
]}

Query string: Exam item: decide whether the reported composite z-score for C[C@H]1CC[C@@H](C(=O)O)N[C@@H]1c1ccc(C#CCN(C)C)cc1 is at least 0.1.
Result string: Criterion not met

Query string: Continue with O=C1O[C@@H](c2ccccc2)[C@@H](c2ccccc2)N2[C@@H](c3ccccc3OCCO)[C@]3(C(=O)Nc4ccc(C#CCCO)cc43)[C@@H](C(=O)O)[C@H]12
Result string: Criterion met

###

biological target: Concanavalin-A (Canavalia ensiformis); test: ConA small-molecule binders, primary screen, artefact control for SMM control protein annotation, biochemical, small-molecule microarray, Alexa647 label, 635 nm (AID 1127); conditions: ConA-A647 binding fluorescence, higher = more signal;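 further: z combines 667 nm emission intensity with signal-to-noise across three replicate slides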
composite z-score of 0.5 or higher: 1.0. Under 0.5: 0.0.

Query string: Exam item: decide whether the reported composite z-score for C=CCOC(=O)[C@H]1[C@@H]2C(=O)O[C@@H](c3ccccc3)[C@@H](c3ccccc3)N2[C@@H](c2ccc(OCCOC(=O)[C@H]3C[C@H]4C(=O)N5CCC[C@H]5C(=O)N4[C@H]3c3cccc(OCCO)c3)cc2)[C@]12C(=O)Nc1ccc(I)cc12 is at least 0.5.
Result string: 1.0

Query string: Continue with CCCNC(=O)[C@@H]1c2ccccc2C(=O)N(c2ccc(C)cn2)[C@H]1c1ccc(CO)cc1
Result string: 0.0

Query string: Continue with Cc1cc2c(nc1C)CCCN2CC(O)CN1CCN(C)CC1 (stereo not given)
Result string: 1.0

Query string: Continue with COC(=O)CC1OC1[C@H](C)[C@@H](OC)C(C)C (stereo not given in full)
Result string: 0.0

Query string: Continue with CCOC(=O)[C@H](Cc1ccccc1)NC(=O)CCC1CC(OC(=O)NCc2ccc3c(c2)OCO3)CC2(CCCC(COC(=O)NCc3cccc(C(F)(F)F)c3)O2)O1 (stereo not given in full)
Result string: 1.0

###

test system: Human papillomavirus type 1a protein E7 (residues 44-93); assay: HPV1a E7 fragment binders on microarrays, primary screen, biochemical, small-molecule microarray, residues 44-93, 635 nm fluorescence (AID 1108); conditions: small-molecule microarray binding, fluorescence 635 nm; higher = more signal;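 further: E7 fragment applied at 1 µg/mL in TBST for 1 h at 4 C; score combines spot fluorescence with its signal to noise ratio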
Item-by-item account of composite z-score

Check out these entries, answers already filled in.
{"columns": ["COMPOUND", "TARGET_OR_TEST_SYSTEM", "ASSAY_METRIC", "RESULT"],
 "data": [
  ["O=C1C2C=CC(C(O)c3ccc([N+](=O)[O-])cc3)N(Nc3ccc([N+](=O)[O-])cc3)C2C(=O)N1c1ccccc1 (configuration not stated)", "Human papillomavirus type 1a protein E7 (residues 44-93)", "composite z-score", 1.47],
  ["CCOC(=O)NN=C1C[C@@H](O)[C@@H](O)[C@@H]2[C@@H]3C(=O)N(CC)C(=O)[C@@H]3CC[C@@H]12", "Human papillomavirus type 1a protein E7 (residues 44-93)", "composite z-score", 0.788],
  ["CCN1C(=O)[C@H]2[C@H]3[C@H](O)[C@H](O)CC(=NOCC=C(C)CCC=C(C)C)[C@H]3CC[C@H]2C1=O", "Human papillomavirus type 1a protein E7 (residues 44-93)", "composite z-score", 0.614]
]}

Query string: For Human papillomavirus type 1a protein E7 (residues 44-93), provide composite z-score of Cn1c(=O)n2n(c1=O)[C@H]1[C@H](O)[C@@H]3O[C@@H]3C(=NOC[C@@H](O)COCc3ccco3)[C@H]1CC2 please.
Result string: 0.499

Query string: Continue with CO[C@H]1COC(=O)[C@@H]2CCCN2C(=O)CC=C[C@@H](C)[C@H](OC)COC(=O)CC=C[C@@H]1C
Result string: 0.589

Query string: Continue with CCOC(=O)CCN1C(=O)[C@H]2[C@H]3[C@H](O)[C@H](O)CC(=NOCc4ccccc4)[C@@H]3CC[C@H]2C1=O
Result string: -0.482

Query string: Continue with CC(C)OC(=O)C=C1C[C@@H](c2ccc(C#N)cc2)O[C@@H](c2ccc(C#N)cc2)O1
Result string: 1.45
